Form field: protein stability index (one value per entry).
B1: TMEM40 (parent)
chain: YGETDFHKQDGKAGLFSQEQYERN

Variants of: B1
TEST SUMMARY: protein stability index of a GFP-peptide fusion (GPS, HEK-293T) (PSI 1-6); higher = more stable;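 further: lentivirally expressed fusions sorted by FACS into six bins by GFP to DsRed ratio, PSI derived from sequencing read proportions per bin multiplied by bin number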
MEASUREMENT CONTEXT: c terminus: a fixed tail appended
A bare number is all that is needed in reply.

sequence_entry="YGETDFHKQDGKQGLFSQEQYERN [A13Q]" measured_result=3.93
sequence_entry="YGETDFHKQDGKAGLFSQEQYERC [N24C]" measured_result=3.98
sequence_entry="YGETDFHKQDGKAGLFSQEQYELN [R23L]" measured_result=4
sequence_entry="YGETDFHKQNGKAGLFSQEQYERN [D10N]" measured_result=3.92
sequence_entry="YGETDFHKQDGKAGLFPQEQYERN [S17P]" measured_result=4.03
sequence_entry="YGETDFHKQDGKAGLFSQEQYTRN [E22T]" measured_result=4.01

protein stability index lookup needed for YGETDFHKQDGKAGLFSQEQYERW [N24W] , thanks.
3.99

protein stability index lookup needed for YGETDFHKQDGKAGLFSQEQYDRN [E22D] , thanks.
4.03

protein stability index lookup needed for YGETDFHKQDGKAGLFSQEQYEFN [R23F] , thanks.
4.04
